This listing pairs compounds with measured z-score.
Experiment: adipocyte viability effects, profiling panel, cell-based, 3T3-L1 adipocytes, calcein-AM fluorescence, 48 h, basal (AID 1163); further: test concentration not given here
Details: 3T3-L1 adipocytes viability, higher = more signal

Below: 6 compounds and their reported z-score.
# smiles.entry, z-score
measured = [
    ("O=C1[C@H]2[C@H]3[C@H](O)[C@H](O)CC(=NOCc4ccccc4)[C@H]3CC[C@H]2C(=O)N1c1ccc(F)cc1F", 0.118),
    ("C#C[C@@H](CC)O[Si](C#Cc1ccc(Oc2ccccc2)cc1)(C(C)C)C(C)C", -1.01),
    ("O=C(NN=C1C[C@@H](O)[C@@H](O)[C@@H]2[C@@H]3C(=O)N(c4cccc(Oc5ccccc5)c4)C(=O)[C@@H]3CC[C@H]12)OCc1ccccc1", -0.205),
    ("C[N+](C)(C)CCCCCCNC(=O)[C@@H]1C[C@@H]2C(=O)N3CCC[C@H]3C(=O)N2[C@@H]1c1cccc(OCCO)c1", -0.0317),
    ("COc1ccc([Si](C)(C)[C@@H]2[C@@H](CCO)O[C@]3(C(=O)N(Cc4ccc(NC(C)=O)cc4)c4ccccc43)[C@H]2C)cc1", 1.37),
    ("CC(C)=CCCC(C)=CCON=C1C[C@@H](O)[C@@H](O)[C@@H]2[C@@H]3C(=O)N(C[C@@H]4CCCO4)C(=O)[C@@H]3CC[C@@H]12", -0.833),
]

Query compound follows.
IN: // lookup z-score for COC(=O)[C@@]1(Cc2ccccc2)[C@H]2c3cc(C(=O)N4CCCC4)n(Cc4ccccn4)c3C[C@H]2CN1C(=O)c1ccccc1
OUT: 1.91

###

Target: Neurogenic locus notch homolog protein 2 (Homo sapiens)
Test: Notch2 binders on small-molecule microarrays, primary screen, biochemical, small-molecule microarray, 635 nm fluorescence, stem cell growth factors (AID 1073)
Settings: Notch2 binding, higher = more signal
This listing pairs molecules with measured composite z-score.
# print the numeric value only

# smiles.entry, value.observed
measured = [
    ("CC(C)C[C@@H]1NC(=O)[C@H]2C[C@@H](C(=O)NCCCCCCN(C)C)[C@@H](c3cccc(OCCO)c3)N2C1=O", 0.873),
    ("CC(CCC(=O)OC[C@H]1O[C@H](C#Cc2ccccc2)C=C[C@@H]1Oc1ccc(C)cc1)=NOC[C@@H](O)[C@H]1O[C@@H]2OC(C)(C)O[C@@H]2[C@H]1O", -0.836),
    ("CC(=O)OC[C@H]1O[C@H](CCON=C(C)CCN2CCc3nc(-c4ccccc4)c(-c4ccccc4)cc3C2)C=C[C@@H]1OC(C)=O", 0.0174),
    ("O=C1[C@H]2[C@H]3[C@H](O)[C@H](O)CC(=NOC[C@@H](O)COCc4ccco4)[C@H]3CC[C@H]2C(=O)N1Cc1ccc2c(c1)OCO2", -0.282),
    ("COC(=O)C1=C(C)[C@@H](O)[C@@H](C)[C@H](c2c(OC)c(OC)c(C)c(OC)c2OC)O1", 0.239),
    ("CO[C@H]1O[C@H](CO)[C@@H](OC(=O)Nc2ccc(C#N)cc2)[C@H](OC(=O)c2cc3ccccc3[nH]2)[C@H]1OC(=O)c1cc2ccccc2[nH]1", 1.04),
]

IN: // lookup composite z-score for CCCNC(=O)OC[C@H]1O[C@H](CCON=C[C@@H](OC)[C@H](C)C=CCC(=O)OC)C=C[C@@H]1Oc1ccc(OC)cc1
OUT: -0.0065
